- Test system: Plasmodium berghei (Pb-Luc) exoerythrocytic-stage parasites
- condition_details: concentration 0.00457247, second series
endpoint: normalised signal at concentration 0.00457247 (second series)
Lab note: jot the number down without any unit.

# lookup: normalised signal at concentration 0.00457247 (second series) of C[C@@H]1CCCCO[C@H](CN(C)S(=O)(=O)c2ccc(F)cc2)[C@H](C)CN([C@@H](C)CO)C(=O)c2cc(N(C)C)ccc2O1 [BRD-K77718491-001-01-4]
0.9071

And C[C@@H]1CCCCO[C@@H](CN(C)S(=O)(=O)c2ccc(F)cc2)[C@H](C)CN([C@@H](C)CO)C(=O)c2cc(N(C)C)ccc2O1 [BRD-K44445002-001-01-6] ?
0.8769

And COc1cccc(NC(=O)N[C@@H]2CC[C@H](CC(=O)N3CCN(C)CC3)O[C@@H]2CO)c1 [BRD-K48690594-001-01-7] ?
0.8968

Reference for the values: paper PMC4890880
